Values compiled from ChEMBL document CHEMBL1201862.

Target: Voltage-dependent T-type calcium channel subunit alpha-1H (Homo sapiens, UniProt O95180);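 also: channel activity triggered by adding a high calcium stimulation buffer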
Sequence (O95180 whole entry): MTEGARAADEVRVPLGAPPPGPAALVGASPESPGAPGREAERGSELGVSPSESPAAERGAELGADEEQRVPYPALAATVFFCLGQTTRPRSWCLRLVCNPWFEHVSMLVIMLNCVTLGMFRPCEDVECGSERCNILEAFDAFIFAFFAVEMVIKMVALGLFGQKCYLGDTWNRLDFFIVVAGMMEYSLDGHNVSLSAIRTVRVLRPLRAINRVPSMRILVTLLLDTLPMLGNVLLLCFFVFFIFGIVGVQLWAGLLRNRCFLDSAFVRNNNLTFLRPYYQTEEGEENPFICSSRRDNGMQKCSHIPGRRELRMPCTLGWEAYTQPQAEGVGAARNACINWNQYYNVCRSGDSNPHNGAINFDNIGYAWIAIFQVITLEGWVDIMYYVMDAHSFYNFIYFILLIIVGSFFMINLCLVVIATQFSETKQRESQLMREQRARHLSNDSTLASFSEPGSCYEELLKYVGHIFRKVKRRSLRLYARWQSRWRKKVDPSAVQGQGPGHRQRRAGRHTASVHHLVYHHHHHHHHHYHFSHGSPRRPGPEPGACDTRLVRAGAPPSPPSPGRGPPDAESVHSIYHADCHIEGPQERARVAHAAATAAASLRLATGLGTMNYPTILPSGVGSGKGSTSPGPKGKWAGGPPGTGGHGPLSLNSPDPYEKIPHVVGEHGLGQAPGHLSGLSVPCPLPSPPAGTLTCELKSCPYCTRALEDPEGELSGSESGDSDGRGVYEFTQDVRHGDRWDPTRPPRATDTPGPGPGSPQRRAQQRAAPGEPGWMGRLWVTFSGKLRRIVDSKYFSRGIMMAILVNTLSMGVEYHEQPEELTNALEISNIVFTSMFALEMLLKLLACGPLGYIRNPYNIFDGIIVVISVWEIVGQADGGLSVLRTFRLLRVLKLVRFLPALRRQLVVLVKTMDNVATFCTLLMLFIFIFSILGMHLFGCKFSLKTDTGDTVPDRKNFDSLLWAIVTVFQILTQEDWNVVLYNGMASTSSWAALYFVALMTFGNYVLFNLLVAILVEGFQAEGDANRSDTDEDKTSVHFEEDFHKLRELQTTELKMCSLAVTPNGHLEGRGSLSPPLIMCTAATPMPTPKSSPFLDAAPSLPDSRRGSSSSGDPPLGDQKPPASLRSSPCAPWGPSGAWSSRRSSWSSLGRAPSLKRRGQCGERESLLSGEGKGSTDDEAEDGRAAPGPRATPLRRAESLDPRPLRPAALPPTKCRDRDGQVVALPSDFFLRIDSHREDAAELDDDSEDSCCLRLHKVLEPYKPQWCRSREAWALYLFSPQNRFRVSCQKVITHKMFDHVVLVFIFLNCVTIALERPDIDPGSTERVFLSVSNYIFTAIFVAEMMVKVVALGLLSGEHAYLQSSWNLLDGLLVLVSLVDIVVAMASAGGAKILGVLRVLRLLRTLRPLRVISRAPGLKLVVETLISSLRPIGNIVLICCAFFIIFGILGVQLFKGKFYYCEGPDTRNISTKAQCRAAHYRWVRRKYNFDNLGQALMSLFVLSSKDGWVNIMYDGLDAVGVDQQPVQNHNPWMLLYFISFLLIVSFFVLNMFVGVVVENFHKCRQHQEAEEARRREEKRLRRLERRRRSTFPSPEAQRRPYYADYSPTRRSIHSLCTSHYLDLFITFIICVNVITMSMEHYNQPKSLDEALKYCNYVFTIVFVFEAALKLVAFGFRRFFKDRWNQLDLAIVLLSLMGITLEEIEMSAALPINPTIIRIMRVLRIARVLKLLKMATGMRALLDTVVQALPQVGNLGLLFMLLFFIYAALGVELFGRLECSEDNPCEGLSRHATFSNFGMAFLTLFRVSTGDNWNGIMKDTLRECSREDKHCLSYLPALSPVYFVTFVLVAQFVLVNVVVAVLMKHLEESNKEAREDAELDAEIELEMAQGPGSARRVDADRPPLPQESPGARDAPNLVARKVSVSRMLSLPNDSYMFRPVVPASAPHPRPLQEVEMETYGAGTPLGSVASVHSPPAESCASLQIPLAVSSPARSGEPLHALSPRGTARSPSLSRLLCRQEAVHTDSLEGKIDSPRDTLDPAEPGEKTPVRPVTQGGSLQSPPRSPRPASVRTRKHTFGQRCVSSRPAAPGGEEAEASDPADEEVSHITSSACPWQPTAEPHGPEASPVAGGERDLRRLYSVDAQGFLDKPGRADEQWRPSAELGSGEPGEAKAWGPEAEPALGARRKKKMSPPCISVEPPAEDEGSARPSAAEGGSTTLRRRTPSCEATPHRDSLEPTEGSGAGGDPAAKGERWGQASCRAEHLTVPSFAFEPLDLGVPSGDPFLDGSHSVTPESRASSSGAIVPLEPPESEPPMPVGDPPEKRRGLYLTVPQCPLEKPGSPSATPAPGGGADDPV
Format: functional
Activity calls are given as the source filed them.
observable: EC50

IN: Param item = Cc1ccc(NC(=O)C[S+]([O-])Cc2nc(-c3ccc(C)cc3)oc2C)cc1 (centres undefined) ; retrieve measured EC50.
OUT: 2.45 µM (active)

IN: Param item = O=C(NCc1ccc2c(c1)OCO2)c1ccc(CN2CCc3ccccc3C2)cc1 ; retrieve measured EC50.
OUT: 7.5 µM (active)

IN: Param item = Cc1ccc(CNC(=O)C[S+]([O-])Cc2nc(-c3ccccc3C)oc2C)cc1 (centres undefined) ; retrieve measured EC50.
OUT: 6 µM (active)

IN: Param item = CC(CCc1ccccc1)NC(=O)CN1CCN(Cc2ccc(Cl)cc2)C1=O (centres undefined) ; retrieve measured EC50.
OUT: 4.5 µM (active)

====

Biological target: Short transient receptor potential channel 4 (Mus musculus, UniProt Q9QUQ5)
Sequence (Q9QUQ5 whole entry): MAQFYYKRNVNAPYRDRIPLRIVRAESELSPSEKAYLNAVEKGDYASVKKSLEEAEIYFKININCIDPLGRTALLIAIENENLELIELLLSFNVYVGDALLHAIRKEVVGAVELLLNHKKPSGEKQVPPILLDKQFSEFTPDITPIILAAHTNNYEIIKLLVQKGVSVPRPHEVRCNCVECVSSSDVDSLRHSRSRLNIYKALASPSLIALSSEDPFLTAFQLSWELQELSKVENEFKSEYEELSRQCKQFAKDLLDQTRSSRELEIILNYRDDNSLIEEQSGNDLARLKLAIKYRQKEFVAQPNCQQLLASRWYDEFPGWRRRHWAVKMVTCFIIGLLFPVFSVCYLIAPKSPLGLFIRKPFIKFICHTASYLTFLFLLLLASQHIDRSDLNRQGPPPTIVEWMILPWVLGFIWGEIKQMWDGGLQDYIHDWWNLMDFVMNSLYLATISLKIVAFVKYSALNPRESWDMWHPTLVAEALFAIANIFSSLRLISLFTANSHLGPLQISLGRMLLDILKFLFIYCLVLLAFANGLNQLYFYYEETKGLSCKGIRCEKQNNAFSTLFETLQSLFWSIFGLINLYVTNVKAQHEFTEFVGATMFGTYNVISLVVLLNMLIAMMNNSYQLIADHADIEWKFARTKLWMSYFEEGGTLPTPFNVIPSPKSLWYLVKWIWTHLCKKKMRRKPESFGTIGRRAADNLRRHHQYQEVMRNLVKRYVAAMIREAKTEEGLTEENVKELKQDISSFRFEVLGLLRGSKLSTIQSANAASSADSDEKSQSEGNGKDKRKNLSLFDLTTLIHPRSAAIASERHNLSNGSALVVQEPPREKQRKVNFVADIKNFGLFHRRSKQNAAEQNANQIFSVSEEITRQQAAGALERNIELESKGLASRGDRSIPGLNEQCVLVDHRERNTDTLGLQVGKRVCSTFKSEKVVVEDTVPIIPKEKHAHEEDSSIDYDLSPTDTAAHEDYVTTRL
Assay: block of DAMGO-driven TRPC4 calcium entry – cell-based, HEK293 TRPC4/mu-opioid, Fluo-4 calcium, dose response (AID 434942);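 also: potency of inhibitors blocking the TRPC4 calcium response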
Type: functional
The source made the active and inactive calls. The rule behind the calls is not given here.
Exercise: state measured EC50 for each of the compounds provided.

IN: GET /values?readout=EC50&system=Short transient receptor potential channel 4 (Mus musculus, UniProt Q9QUQ5)&item= Cc1cccc(-c2nnc(SCc3nc4ccccc4[nH]3)n2Cc2ccco2)c1
OUT: 1190 nM (active)

IN: GET /values?readout=EC50&system=Short transient receptor potential channel 4 (Mus musculus, UniProt Q9QUQ5)&item= COc1ccc(Nc2cc(C)nc3ccccc23)cc1
OUT: 2990 nM (active)

IN: GET /values?readout=EC50&system=Short transient receptor potential channel 4 (Mus musculus, UniProt Q9QUQ5)&item= c1ccc(COC(CN2CCCCCC2)CN2CCCCCC2)cc1
OUT: 6680 nM (active)

IN: GET /values?readout=EC50&system=Short transient receptor potential channel 4 (Mus musculus, UniProt Q9QUQ5)&item= Cc1c(CCOC(=O)c2ccc([N+](=O)[O-])cc2)sc[n+]1CC(=O)c1ccccc1
OUT: 5960 nM (active)

IN: GET /values?readout=EC50&system=Short transient receptor potential channel 4 (Mus musculus, UniProt Q9QUQ5)&item= OCC1(Cc2ccccc2)CCN(Cc2ccc(C(F)(F)F)cc2)CC1
OUT: 2110 nM (active)

IN: GET /values?readout=EC50&system=Short transient receptor potential channel 4 (Mus musculus, UniProt Q9QUQ5)&item= COc1ccccc1N1CCc2c(C)nc3c(OC)cccc3c21
OUT: 4730 nM (active)

IN: GET /values?readout=EC50&system=Short transient receptor potential channel 4 (Mus musculus, UniProt Q9QUQ5)&item= CC(NCCC(Cc1ccccc1)c1ccco1)c1ccccc1 (configuration not stated)
OUT: 1680 nM (active)

====

Molecular target: High affinity choline transporter 1 (Homo sapiens, UniProt Q9GZV3)
Sequence (Q9GZV3 whole entry): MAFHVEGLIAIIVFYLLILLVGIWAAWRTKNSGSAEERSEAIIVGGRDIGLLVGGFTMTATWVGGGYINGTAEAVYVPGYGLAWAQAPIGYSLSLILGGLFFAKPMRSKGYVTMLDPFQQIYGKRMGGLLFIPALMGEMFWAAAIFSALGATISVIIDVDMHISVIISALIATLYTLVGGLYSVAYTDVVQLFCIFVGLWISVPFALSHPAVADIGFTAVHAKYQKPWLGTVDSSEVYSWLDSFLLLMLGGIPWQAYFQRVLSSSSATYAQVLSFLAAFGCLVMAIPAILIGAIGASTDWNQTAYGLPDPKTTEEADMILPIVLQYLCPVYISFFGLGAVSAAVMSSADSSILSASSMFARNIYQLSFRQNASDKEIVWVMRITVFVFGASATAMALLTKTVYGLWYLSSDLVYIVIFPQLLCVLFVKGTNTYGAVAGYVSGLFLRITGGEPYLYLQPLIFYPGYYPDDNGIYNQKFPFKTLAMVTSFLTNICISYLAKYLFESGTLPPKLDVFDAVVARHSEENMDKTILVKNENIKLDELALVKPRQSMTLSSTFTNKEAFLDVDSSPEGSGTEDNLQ
Test: human choline transporter blockers, potency – cell-based, 10-point CRC, membrane potential dye, dose response (AID 588401);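 also: membrane potential dye fluorescence of choline-evoked depolarization via CHT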
Assay type: functional
Active and inactive are the calls of the source. How the calls were made is not given here.
observable: IC50

IN: Param item = Cc1n[nH]c(C)c1Sc1ccccc1/N=C/c1cc(Cl)cc([N+](=O)[O-])c1O ; retrieve measured IC50.
OUT: 6.23 µM (active)

IN: Param item = O=C(C[n+]1cccc(Br)c1)c1ccc(-c2ccccc2)cc1 ; retrieve measured IC50.
OUT: 1 µM (active)

IN: Param item = CCC(C)c1ccc(NC(S)=NC(C)C2CCCO2)cc1 (centres undefined) ; retrieve measured IC50.
OUT: 4.09 µM (active)

IN: Param item = CCC(NC(C)c1ccccc1)=C1C(=O)N(C)C(=O)N(C)C1=O (centres undefined) ; retrieve measured IC50.
OUT: 8.43 µM (active)
